Kindly supply the reported pIC50 values for the records listed here.
Tested on: angiotensin II-induced contraction of the isolated rabbit aorta
Experiment: Inhibition of angiotensin II-induced vascular contraction on isolated aortic rings of the rabbit in vitro
Format: cell-based
Conditions: Oryctolagus cuniculus, agonist angiotensin II, effect at 3rd = submaximal agonist concentration, read-out: IC50 against contractions induced by: AII
pIC50 here: minus log base 10 of the concentration, concentration in moles per litre.

## Input pIC50 lookup needed for COC(=O)[C@@H]1CCCN1S(=O)(=O)c1ccc(Cn2c(C3CC3)nc3c(C)ccnc32)c(Cl)c1 , thanks.
## Output 8.22

## Input For Cc1cc(C)c2nc(C3CC3)n(Cc3ccc(S(=O)(=O)N4CCC[C@H]4C(=O)O)cc3Cl)c2n1 then?
## Output 8.52

## Input For COC(=O)[C@@H]1CCCN1S(=O)(=O)c1ccc(Cn2c(C3CC3)nc3c(C)cc(C)nc32)c(Cl)c1 then?
## Output 8.40

## Input For CCCCc1nc2cccnc2n1Cc1ccc(S(=O)(=O)N2CCC[C@H]2C(=O)O)cc1Cl then?
## Output 7.40

## Input For CCCCc1nc2cccnc2n1Cc1ccc(S(=O)(=O)N2CCCCC2C(=O)O)cc1Cl (racemic) then?
## Output 6.49

## Input For CCc1nc2c(C)cc(C)nc2n1Cc1ccc(S(=O)(=O)N2CCC[C@H]2C(=O)O)cc1Cl then?
## Output 8.52

## Input For CCc1nc2c(C)cc(C)nc2n1Cc1ccc(S(=O)(=O)N2CCC[C@H]2C(=O)OC)cc1Cl then?
## Output 8.22
